From: patent USRE48711E1

- test system: ASK1 (Apoptosis Signal-Regulating Kinase 1) (Homo sapiens (Human), UniProt Q99683)
- Sequence (Q99683 649-946): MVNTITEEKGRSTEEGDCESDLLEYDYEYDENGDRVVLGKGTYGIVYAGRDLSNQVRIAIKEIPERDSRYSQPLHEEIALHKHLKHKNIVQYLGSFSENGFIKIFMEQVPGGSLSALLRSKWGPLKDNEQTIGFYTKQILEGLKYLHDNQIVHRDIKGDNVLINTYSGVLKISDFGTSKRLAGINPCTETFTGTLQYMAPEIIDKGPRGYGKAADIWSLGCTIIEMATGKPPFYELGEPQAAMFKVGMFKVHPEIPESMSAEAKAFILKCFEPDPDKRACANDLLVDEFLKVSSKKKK
- assay info: ASK1 (Apoptosis Signal-Regulating Kinase 1) TR-FRET Kinase Assay (Biochemical IC50)
- reported conditions: TR-FRET, biotin-MBP substrate, 20 min pre-incubation, ATP added as 300 μM solution
result type: pIC50
pIC50 here is simply -log10 of the concentration when that concentration is written in mol/L.

INSERT INTO assay_data (molecule, test_system, quantitative_result) VALUES
  ('O=C(Nc1cccc(-c2nncn2C2CCC2)c1)c1cc(-c2ccc(C3CC3)nc2)ccn1', 'ASK1 (Apoptosis Signal-Regulating Kinase 1) (Homo sapiens (Human), UniProt Q99683)', 7.51),
  ('O=C(Nc1cccc(-c2nncn2C2CC2)c1)c1cc(-n2cnc(C(F)(F)C(F)(F)F)c2)ccn1', 'ASK1 (Apoptosis Signal-Regulating Kinase 1) (Homo sapiens (Human), UniProt Q99683)', 7.72),
  ('C[C@@H](C1CC1)n1cnnc1-c1cccc(NC(=O)c2cc(-c3ccc(C4CC4)nc3)ccn2)c1', 'ASK1 (Apoptosis Signal-Regulating Kinase 1) (Homo sapiens (Human), UniProt Q99683)', 7.24);

Recorded pIC50 for O=C(Nc1cccc(-c2nncn2C2CC2)c1)c1cc(-n2cnc3ncccc32)ccn1 , please?
7.80

Another molecule to look at: O=C(Nc1cccc(-c2nncn2C2CC2)c1)c1cc(-c2cccnc2)c2ccccc2n1
7.44

Another molecule to look at: O=C(Nc1cccc(-c2nncn2C2CC2c2ccccc2)c1)c1cc(-c2ccc(C3CC3)nc2)ccn1 (centres unmarked)
6.37

Another molecule to look at: CCc1cncc(-c2ccnc(C(=O)Nc3cccc(-c4nncn4C4CC4)c3)c2)c1
8.10

Another molecule to look at: CCCc1ccc(-c2ccnc(C(=O)Nc3cccc(-c4nncn4C4CC4)c3)c2)cn1
8.30
